- target: Sphingosine 1-phosphate receptor 1 (Homo sapiens, UniProt P21453)
- Sequence (P21453 whole entry): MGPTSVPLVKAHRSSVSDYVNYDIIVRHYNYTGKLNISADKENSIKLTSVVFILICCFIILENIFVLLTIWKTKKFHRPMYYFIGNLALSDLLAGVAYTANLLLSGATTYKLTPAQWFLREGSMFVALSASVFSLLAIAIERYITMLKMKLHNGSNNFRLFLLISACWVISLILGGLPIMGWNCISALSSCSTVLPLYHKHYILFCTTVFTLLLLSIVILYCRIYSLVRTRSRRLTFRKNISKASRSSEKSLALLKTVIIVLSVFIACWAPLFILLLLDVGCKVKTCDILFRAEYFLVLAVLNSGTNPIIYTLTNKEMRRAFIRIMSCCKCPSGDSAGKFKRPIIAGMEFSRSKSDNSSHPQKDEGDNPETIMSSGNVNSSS
- measurement.notes: Induction of human GFP-tagged chimeric S1P1R internalization in human U2Os cells by fluorescence microscopy relative to 1-(4-(6-benzylbenzofuran-2-yl)-3-fluorobenzyl)azetidine-3-carboxylic acid
- Type: cell-based
measurement.kind: Efficacy (%)

- smiles.entry: "O=C(O)C1CN(Cc2ccc(-c3nc4cc(Cc5ccccc5)cnc4s3)c(F)c2)C1"
  Efficacy (%): 125
- smiles.entry: "O=C(O)C1CN(Cc2ccc(-c3nc4nc(Cc5ccccc5)ccc4s3)c(F)c2)C1"
  Efficacy (%): 106
- smiles.entry: "O=C(O)C1CN(Cc2ccc(-c3nc4ccc(C5(c6ccccc6)CCC5)nc4s3)c(F)c2)C1"
  Efficacy (%): 124
- smiles.entry: "O=C(O)C1CN(Cc2ccc(-c3nc4ccc(Cc5ccccc5)nc4s3)c(F)c2)C1"
  Efficacy (%): 92
- smiles.entry: "O=C(O)C1CN(Cc2ccc(-c3nc4ccc(C5(c6ccccc6)CC5)nc4s3)c(F)c2)C1"
  Efficacy (%): 98
- smiles.entry: "O=C(O)C1CN(Cc2ccc(-c3nc4ccc(C5(c6ccccc6)CCCC5)nc4s3)c(F)c2)C1"
  Efficacy (%): 76
- smiles.entry: "O=C(O)C1CN(Cc2ccc(-c3nc4cnc(Cc5ccccc5)cc4s3)c(F)c2)C1"
  Efficacy (%): 77
- smiles.entry: "C[C@H](c1ccccc1)c1ccc2nc(-c3ccc(CN4CC(C(=O)O)C4)cc3F)sc2n1"
  Efficacy (%): 87
- smiles.entry: "O=C(O)C1CN(Cc2ccc(-c3nc4ccc(C5(c6ccccc6)CCCCC5)nc4s3)c(F)c2)C1"
  Efficacy (%): 108
- smiles.entry: "O=C(O)C1CN(Cc2ccc(-c3nc4cc(Cc5ccccc5)ncc4s3)c(F)c2)C1"
  Efficacy (%): 115
- smiles.entry: "O=C(O)C1CN(Cc2ccc(-c3nc4cc(Cc5ccccc5)ccc4s3)c(F)c2)C1"
  Efficacy (%): 102
- smiles.entry: "O=C(O)C1CN(Cc2ccc(-c3nc4ncc(Cc5ccccc5)cc4s3)c(F)c2)C1"
  Efficacy (%): 75
- smiles.entry: "CC(C)(c1ccccc1)c1ccc2nc(-c3ccc(CN4CC(C(=O)O)C4)cc3F)sc2n1"
  Efficacy (%): 103
- smiles.entry: "C[C@@H](c1ccccc1)c1ccc2nc(-c3ccc(CN4CC(C(=O)O)C4)cc3F)sc2n1"
  Efficacy (%): 99
- smiles.entry: "O=C(O)C1CN(Cc2ccc(-c3nc4ccc(C5(c6ccccc6)CC5)cc4s3)c(F)c2)C1"
  Efficacy (%): 93

Entry source: ChEMBL document CHEMBL1649108
